Biological target: Substance-K receptor (Rattus norvegicus, UniProt P16610)
Sequence (P16610 whole entry): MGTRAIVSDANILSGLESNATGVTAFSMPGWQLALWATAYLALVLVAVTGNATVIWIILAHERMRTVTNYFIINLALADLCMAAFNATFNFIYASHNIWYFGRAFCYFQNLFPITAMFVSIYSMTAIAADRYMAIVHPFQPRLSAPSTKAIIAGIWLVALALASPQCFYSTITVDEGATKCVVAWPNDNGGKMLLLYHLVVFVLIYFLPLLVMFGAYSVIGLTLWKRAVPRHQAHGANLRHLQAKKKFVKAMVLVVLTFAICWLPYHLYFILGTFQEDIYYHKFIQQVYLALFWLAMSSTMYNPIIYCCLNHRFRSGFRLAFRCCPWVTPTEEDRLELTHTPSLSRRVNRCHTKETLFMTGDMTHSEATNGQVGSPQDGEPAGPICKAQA
Test: Inhibition of [125I]NKA binding to neurokinin NK2 receptor from rat duodenum membranes
Type: cell membranes, Membrane
reported-property: pKi
Here pKi is given on a logarithmic scale as minus log10 of the concentration in mol/L.

CN(CC(CCN1CCC(CO)(c2ccccc2)CC1)c1ccc(Cl)c(Cl)c1)C(=O)c1ccccc1 (configuration not stated) : 7.30
CC(=O)NC1(c2ccccc2)CCN(CCC(CN(C)C(=O)c2ccccc2)c2ccc(Cl)c(Cl)c2)CC1 (single isomer, unassigned) [SAREDUTANT] : 9.30
CN(CC(CCN1CCC(O)(c2ccccc2)CC1)c1ccc(Cl)c(Cl)c1)C(=O)c1ccsc1 (configuration not stated) : 9.00
CC(=O)NCC1(c2ccccc2)CCN(CCC(CN(C)C(=O)c2ccccc2)c2ccc(Cl)c(Cl)c2)CC1 (configuration not stated) : 7.64
CCOC1(c2ccccc2)CCN(CCC(CN(C)C(=O)c2ccccc2)c2ccc(Cl)c(Cl)c2)CC1 (configuration not stated) : 9.05
CN(CC(CCN1CCC(O)(c2ccccc2)CC1)c1ccc(Cl)c(Cl)c1)C(=O)c1cccs1 (configuration not stated) : 8.85

Shifting focus to the compound that follows.
// CC(=O)OC1(c2ccccc2)CCN(CCC(CN(C)C(=O)c2ccccc2)c2ccc(Cl)c(Cl)c2)CC1 (configuration not stated) : pKi value = 9.52

* * *

Target: Substance-K receptor (Rattus norvegicus, UniProt P16610)
Assay: The compound was evaluated for the inhibition of [125I]NKA binding to Tachykinin receptor 2 from rat duodenum membranes
Assay type: cell membranes, Membrane
reported-property: pKi
Here pKi is given on a logarithmic scale as minus log10 of the concentration in mol/L.

// CC(=O)NC1(c2ccccc2)CCN(CC[C@H](CN(C)C(=O)c2ccccc2)c2ccc(Cl)c(Cl)c2)CC1 [SAREDUTANT] : pKi value = 6.02

* * *

Measured Ki, listed per entry for reference.
Target: Substance-K receptor (Rattus norvegicus)
Experiment: Inhibition of [125I]NKA binding to neurokinin NK2 receptor from rat duodenum membranes
Format: cell membranes, Membrane

# example entries with known answers
CC(=O)NC1(c2ccccc2)CCN(CCC(CNC(=O)c2ccccc2)c2ccc(Cl)c(Cl)c2)CC1 (stereo not given) : > 100 nM
CN(CC(CCN1CCC(c2ccccc2)CC1)c1ccc(Cl)c(Cl)c1)C(=O)c1ccccc1 (stereo not given) : > 100 nM
CN(CC(CCN1CCC(O)(c2ccccc2)CC1)c1ccc(Cl)c(Cl)c1)C(=O)c1cccc2ccccc12 (stereo not given) : 1.5 nM

// CN(CC(CCN1CCC(O)(c2ccccc2)CC1)c1ccc(Cl)c(Cl)c1)C(=O)c1ccccc1 (stereo not given) : Ki value = 1 nM

// CCN(CC(CCN1CCC(OC(C)=O)(c2ccccc2)CC1)c1ccc(Cl)c(Cl)c1)C(=O)c1cccs1 (stereo not given) : Ki value = 0.3 nM
